- study target: human CD47 (hCD47) (human, UniProt Q08722 19-139, limits assumed)
- Sequence (Q08722 19-139 limits assumed): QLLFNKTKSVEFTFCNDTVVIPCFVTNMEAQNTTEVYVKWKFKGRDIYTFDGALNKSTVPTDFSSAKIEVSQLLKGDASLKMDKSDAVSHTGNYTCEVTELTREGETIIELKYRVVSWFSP
- test: ELISA, coated hCD47 ECD Fc, supernatant, anti-c-Myc HRP
hCD47 binding (OD) strictly less than 0.7 OD = T. Otherwise F.

{"columns": ["binder", "label value"],
 "data": [
  ["4RP13-3-7B (designed binder, tested as bacterial supernatant; also called S-28; hSIRPα-mt10 (IgV domain)) hSIRPα IgV domain mutant: EEELQVIQPDKSVSVAAGESAILTCTVTSLYPVGPIQWFRGAGPARELIYNQKRQTFPRVTTVSESTKRFNMDFSISISNITPADAGTYYCVKFRKGSPDTEFKSGAGTELSVRAKPS", "F"],
  ["2R-1-4B (designed binder, tested as bacterial supernatant; also called hSIRPα-mt14 (IgV domain)) hSIRPα IgV domain mutant: EEELQVIQPDKSVSVAAGESAILHCTVTSLAPVGPIQWFRGAGPARELIYNQKLDSFPRVTTVSESTKRESMDFSISISNITPADAGTYYCVKFRKGSPDTEFKSGAGTELSVRAKPS", "F"],
  ["4RP13-5-6G (designed binder, tested as bacterial supernatant; also called hSIRPα-mt15 (IgV domain)) hSIRPα IgV domain mutant: EEELQVIQPDKSVSVAAGESAILRCTVTSLTPVGPIQWFRGAGPARELIYNQKAKQFPRVTTVSESTKRENMIFSISISNITPADAGTYYCVKFRKGSPDTEFKSGAGTELSVRAKPS", "F"],
  ["4RP6-1-10A (designed binder, tested as bacterial supernatant; also called S-16; hSIRPα-mt13 (IgV domain)) hSIRPα IgV domain mutant: EEELQVIQPDKSVSVAAGESAILHCTVTSLLPVGPIQWFRGAGPARELIYNQKDFLFPRVTTVSESTKRENRDFSISISNITPADAGTYYCVKFRKGSPDTEFKSGAGTELSVRAKPS", "F"],
  ["2R-1-10B (designed binder, tested as bacterial supernatant; also called hSIRPα-mt6 (IgV domain)) hSIRPα IgV domain mutant: EEELQVIQPDKSVSVAAGESAILHCTVTSLIPVGPIQWFRGAGPARELIYNQKNLIFPRVTTVSESGKRENMDFSISISNITPADAGTYYCVKFRKGSPDTEFKSGAGTELSVRAKPS", "T"]
]}
